organism: Homo sapiens; assay: Liver toxicity in human assessed as induction of drug-induced liver injury by measuring severity class index; also: key of the grades not given here
Attribute: DILI_severity_class
Form: value (number only, do not type unit).

Recorded DILI_severity_class, per entry:
INSERT INTO results (compound, measured_property, value_reported) VALUES
  ('CCOC(=O)[C@H](CCc1ccccc1)N[C@@H](C)C(=O)N1Cc2cc(OC)c(OC)cc2C[C@H]1C(=O)O', 'DILI_severity_class', 3),
  ('C1CCC(C(CC2CCCCN2)C2CCCCC2)CC1 (stereo not given)', 'DILI_severity_class', 8);

Ask: Return reported DILI_severity_class; argument: COc1ccc2c(c1)[C@]13CCCC[C@@H]1[C@H](C2)N(C)CC3
Result: 0

Ask: Return reported DILI_severity_class; argument: Clc1ccc2c(c1)CCc1cccnc1C2=C1CCNCC1
Result: 3

Ask: Return reported DILI_severity_class; argument: COc1cc2nc(N3CCN(C(=O)C4COc5ccccc5O4)CC3)nc(N)c2cc1OC (stereo not given)
Result: 3

====

species on record: Homo sapiens; test: Liver toxicity in human assessed as induction of drug-induced liver injury by measuring severity class index
Measured Property: DILI_severity_class
Form: value (number only, do not type unit).

Recorded DILI_severity_class, per entry:
INSERT INTO assay_data (compound, value_reported) VALUES
  ('CC(CCc1ccccc1)NCC(O)c1ccc(O)c(C(N)=O)c1 (configuration not stated)', 8),
  ('NC(=O)CC[C@@H]1NC(=O)[C@H](Cc2ccccc2)NC(=O)[C@H](Cc2ccc(O)cc2)NC(=O)CCSSC[C@@H](C(=O)N2CCC[C@H]2C(=O)N[C@H](CCCN=C(N)N)C(=O)NCC(N)=O)NC(=O)[C@H](CC(N)=O)NC1=O', 3),
  ('CCCN(CCC)C(=O)Cc1c(-c2ccc(Cl)cc2)nc2ccc(Cl)cn12', 8),
  ('CC1=C(/C=C/C(C)=C/C=C/C(C)=C/CO)C(C)(C)CCC1', 3),
  ('CN[C@@H]1[C@H](O)[C@H](NC)[C@H]2O[C@@]3(O)C(=O)C[C@@H](C)O[C@H]3O[C@@H]2[C@H]1O', 3),
  ('CO/N=C(\C(=O)N[C@@H]1C(=O)N2C(C(=O)[O-])=C(C[N+]3(C)CCCC3)CS[C@H]12)c1csc(N)n1', 3);

Ask: Return reported DILI_severity_class; argument: N=C(N)NCCC[C@H](N)C(=O)O
Result: 0

====

species on record: Homo sapiens; assay: Liver toxicity in human assessed as induction of drug-induced liver injury by measuring severity class index
Attribute: DILI_severity_class
Form: value (number only, do not type unit).

Recorded DILI_severity_class, per entry:
INSERT INTO measurements (compound, measured_property, value_reported) VALUES
  ('C=C1C[C@@H]2[C@H](CC[C@]3(C)C(=O)CC[C@@H]23)[C@@]2(C)C=CC(=O)C=C12', 'DILI_severity_class', 4),
  ('CC(C(=O)O)c1ccc(N2CC=CC2)c(Cl)c1 (stereo unspecified)', 'DILI_severity_class', 8),
  ('Cc1ccc(-c2nc3ccc(C)cn3c2CC(=O)N(C)C)cc1', 'DILI_severity_class', 7),
  ('Cc1cc2nc3c(=O)[nH]c(=O)nc-3n(C[C@H](O)[C@H](O)[C@H](O)CO)c2cc1C', 'DILI_severity_class', 0),
  ('O=C(NCC(O)CO)c1c(I)c(C(=O)NCC(O)CO)c(I)c(N(CCO)C(=O)CO)c1I (stereo unspecified)', 'DILI_severity_class', 0),
  ('CS(=O)(=O)Nc1ccc([N+](=O)[O-])cc1Oc1ccccc1 [NIMESULIDE]', 'DILI_severity_class', 8),
  ('NC1=NC(=O)C(c2ccccc2)O1 (stereo unspecified)', 'DILI_severity_class', 8),
  ('C/C(=N\O)C(C)NCC(C)(C)CNC(C)/C(C)=N/O (stereo unspecified)', 'DILI_severity_class', 0),
  ('CC(=O)Oc1cc(C(C)C)c(OCCN(C)C)cc1C', 'DILI_severity_class', 8),
  ('CC(C)[C@H](N)C(=O)OCC(CO)OCn1cnc2c(=O)nc(N)[nH]c21 (stereo partly specified)', 'DILI_severity_class', 3);

Note: attention shifts to another entry.
Ask: Return reported DILI_severity_class; argument: O=C1CN2Cc3c(ccc(Cl)c3Cl)N=C2N1 [ANAGRELIDE]
Result: 3
